Test system: L1210 leukemia ip in BDF1 mice, survival T/C
Experiment: NCI In Vivo Anticancer Drug Screen. Data for tumor model L1210 Leukemia (intraperitoneal) in B6D2F1 (BDF1) mice
Conditions: endpoint: mean survival time; dose: 100.0 mg/kg/injection; schedule: Q04DX003 (ip); vehicle: Klucel (hydroxypropylcellulose) (HPC); higher = longer survival
Inconclusive results and toxic doses are left out.
measured-quantity: T/C

CC(=O)Nc1cccc2c1Cc1cc([N+](=O)[O-])ccc1-2 ... 93 % of control
O=[N+]([O-])c1cc(F)c(F)cc1F ... 98 % of control
Cc1c(Cl)cccc1NC(=O)c1ccc(Cl)cc1Cl ... 92 % of control
O=C(O)/C=C/C(=O)Nc1ccccc1 ... 93 % of control
CCCCCCCCCCOc1ccc(C=O)c(OC)c1 ... 98 % of control

Which measured T/C belongs to CNC(=S)N/N=C(/C)C(=O)O , tested on L1210 leukemia ip in BDF1 mice, survival T/C?
96 % of control

And what about the compound Cc1ccc(C(=O)C(c2ccccc2)C(Cl)c2ccccc2)cc1 (stereo unspecified) ?
92 % of control

Input CC(C)(C)c1cc(CO)cc(C(C)(C)C)c1O
91 % of control

Now consider CN(C)C=O.CN(C)C=O.[Cl][Sn]([Cl])([Cl])[Cl] and answer again.
92 % of control

Follow-up entry: CCOC(=O)NC(C)(C)CN(CCO)C(=O)OCC
105 % of control

Field entry: CC1CCC(C(C)C)C(NCc2cc(Cl)cc(Cl)c2O)C1 (stereo unspecified)
104 % of control
